tested on: NCI-H650; assay: relative viability (nuclei count vs DMSO), 5 days (fraction); higher = more cells survive; details: first compound 2.53 µM
Decide using relative viability alone. Strictly below 0.8: Condition met. Equal to or above 0.8: Condition not met.

Check out these entries, answers already filled in.
Problem: Say whether its relative viability is strictly beneath 0.8. Entry: O=c1[nH]c2ccccc2n1C1CCN(CCCC(c2ccc(F)cc2)c2ccc(F)cc2)CC1 [Pimozide] + COc1cc2c(Oc3ccc(NC(=O)C4(C(=O)Nc5ccc(F)cc5)CC4)cc3F)ccnc2cc1OCCCN1CCOCC1 [Foretinib] (partner 0.25 µM)
Result: Condition not met

Problem: Say whether its relative viability is strictly beneath 0.8. Entry: Cc1cnc(-c2cnc(NCCNc3ccc(C#N)cn3)nc2-c2ccc(Cl)cc2Cl)[nH]1 + CCNC(=O)c1noc(-c2cc(C(C)C)c(O)cc2O)c1-c1ccc(CN2CCOCC2)cc1 [Luminespib] (partner 0.01 µM)
Result: Condition met

Problem: Say whether its relative viability is strictly beneath 0.8. Entry: O=c1[nH]c2ccccc2n1C1CCN(CCCC(c2ccc(F)cc2)c2ccc(F)cc2)CC1 [Pimozide] + CC(=O)Nc1cccc(-n2c(=O)n(C3CC3)c(=O)c3c(Nc4ccc(I)cc4F)n(C)c(=O)c(C)c32)c1 [Trametinib] (partner 0.02 µM)
Result: Condition not met

Problem: Say whether its relative viability is strictly beneath 0.8. Entry: O=c1[nH]c2ccccc2n1C1CCN(CCCC(c2ccc(F)cc2)c2ccc(F)cc2)CC1 [Pimozide] + Nc1ncn([C@H]2C[C@H](O)[C@@H](CO)O2)c(=O)n1 [Decitabine] (partner 2 µM)
Result: Condition met

Problem: Say whether its relative viability is strictly beneath 0.8. Entry: Cc1cnc(-c2cnc(NCCNc3ccc(C#N)cn3)nc2-c2ccc(Cl)cc2Cl)[nH]1 + C[C@]1(O)C[C@@H](c2nc(-c3ccc4ccc(-c5ccccc5)nc4c3)c3c(N)nccn32)C1 [Linsitinib] (partner 1 µM)
Result: Condition met

***
Problem: Say whether its relative viability is strictly beneath 0.8. Entry: Cc1cnc(-c2cnc(NCCNc3ccc(C#N)cn3)nc2-c2ccc(Cl)cc2Cl)[nH]1 + Cc1cc(Nc2cc(N3CCN(C)CC3)nc(Sc3ccc(NC(=O)C4CC4)cc3)n2)n[nH]1 [Tozasertib] (partner 0.1 µM)
Result: Condition met

Problem: Say whether its relative viability is strictly beneath 0.8. Entry: Cc1cnc(-c2cnc(NCCNc3ccc(C#N)cn3)nc2-c2ccc(Cl)cc2Cl)[nH]1 + O=C(CCCCCCC(=O)Nc1ccccc1)NO [Vorinostat] (partner 1 µM)
Result: Condition met

Problem: Say whether its relative viability is strictly beneath 0.8. Entry: O=c1[nH]c2ccccc2n1C1CCN(CCCC(c2ccc(F)cc2)c2ccc(F)cc2)CC1 [Pimozide] + CS(=O)(=O)CCNCc1ccc(-c2ccc3ncnc(Nc4ccc(OCc5cccc(F)c5)c(Cl)c4)c3c2)o1 [Lapatinib] (partner 2 µM)
Result: Condition met

* * *

tested on: NCI-H2228; assay: relative viability (nuclei count vs DMSO), 5 days (fraction); higher = more cells survive; conditions: first compound 158.11 µM
Below: a set of entries, each annotated with reported relative viability.

// solved cases for relative viability follow
Problem: Provide value of relative viability for this record tested with NCI-H2228: O=C(O)CCCCC(CCSCc1ccccc1)SCc1ccccc1 (stereo not drawn) [CPI-613] + CC(=O)Nc1cccc(-n2c(=O)n(C3CC3)c(=O)c3c(Nc4ccc(I)cc4F)n(C)c(=O)c(C)c32)c1 [Trametinib] (partner 0.02 µM)
Result: 0.452

Problem: Provide value of relative viability for this record tested with NCI-H2228: O=C(O)CCCCC(CCSCc1ccccc1)SCc1ccccc1 (stereo not drawn) [CPI-613] + CC1(C)CCC(c2ccc(Cl)cc2)=C(CN2CCN(c3ccc(C(=O)NS(=O)(=O)c4ccc(N[C@H](CCN5CCOCC5)CSc5ccccc5)c(S(=O)(=O)C(F)(F)F)c4)cc3)CC2)C1 [Navitoclax] (partner 0.5 µM)
Result: 0.297

***
Problem: Provide value of relative viability for this record tested with NCI-H2228: O=C(O)CCCCC(CCSCc1ccccc1)SCc1ccccc1 (stereo not drawn) [CPI-613] + CC(=O)c1c(C)c2cnc(Nc3ccc(N4CCNCC4)cn3)nc2n(C2CCCC2)c1=O [Palbociclib] (partner 0.5 µM)
Result: 0.45

* * *

test system: NCI-H2347; assay: relative viability (nuclei count vs DMSO), 5 days (fraction); higher = more cells survive; conditions: first compound 0.1581 µM
readout.label: relative viability

// solved cases for relative viability follow
Problem: Recorded relative viability for COc1cc2nccc(Oc3ccc(NC(=O)Nc4cc(C)on4)c(Cl)c3)c2cc1OC [Tivozanib] + NC(=O)Nc1cc(-c2cccc(F)c2)sc1C(=O)N[C@H]1CCCNC1 [AZD7762] (partner 0.2 µM) , please?
Result: 0.685

Problem: Recorded relative viability for Nc1ccn([C@@H]2O[C@H](CO)[C@@H](O)[C@@H]2O)c(=O)n1 [Cytarabine] + C[C@@H](Oc1cc(-c2cnn(C3CCNCC3)c2)cnc1N)c1c(Cl)ccc(F)c1Cl [Crizotinib] (partner 1 µM) , please?
Result: 0.642

Continue with the compound presented below.
Problem: Recorded relative viability for Nc1ccn([C@@H]2O[C@H](CO)[C@@H](O)[C@@H]2O)c(=O)n1 [Cytarabine] + CC(C)C[C@H](NC(=O)[C@H](Cc1ccccc1)NC(=O)c1cnccn1)B(O)O [Bortezomib] (partner 0.002 µM) , please?
Result: 0.61

* * *

tested on: SW 1573; assay: relative viability (nuclei count vs DMSO), 5 days (fraction); higher = more cells survive; conditions: first compound 50 µM
Below: a set of entries, each annotated with reported relative viability.
Please reply with the value in numeric form only.

Problem: Recorded relative viability for O=C(O)CCCCC(CCSCc1ccccc1)SCc1ccccc1 (configuration not stated) [CPI-613] + CS(=O)(=O)N1CCN(Cc2cc3nc(-c4cccc5[nH]ncc45)nc(N4CCOCC4)c3s2)CC1 [Pictilisib] (partner 1 µM) , please?
Result: 0.554

***
Problem: Recorded relative viability for O=C(O)CCCCC(CCSCc1ccccc1)SCc1ccccc1 (configuration not stated) [CPI-613] + CCNC(=O)c1noc(-c2cc(C(C)C)c(O)cc2O)c1-c1ccc(CN2CCOCC2)cc1 [Luminespib] (partner 0.01 µM) , please?
Result: 0.138

Problem: Recorded relative viability for O=C(O)CCCCC(CCSCc1ccccc1)SCc1ccccc1 (configuration not stated) [CPI-613] + Cc1nc(Nc2ncc(C(=O)Nc3c(C)cccc3Cl)s2)cc(N2CCN(CCO)CC2)n1 [Dasatinib] (partner 0.075 µM) , please?
Result: 0.467

Problem: Recorded relative viability for O=C(O)CCCCC(CCSCc1ccccc1)SCc1ccccc1 (configuration not stated) [CPI-613] + Cc1cc(Nc2cc(N3CCN(C)CC3)nc(Sc3ccc(NC(=O)C4CC4)cc3)n2)n[nH]1 [Tozasertib] (partner 0.1 µM) , please?
Result: 0.15

Problem: Recorded relative viability for O=C(O)CCCCC(CCSCc1ccccc1)SCc1ccccc1 (configuration not stated) [CPI-613] + Nc1ncn([C@H]2C[C@H](O)[C@@H](CO)O2)c(=O)n1 [Decitabine] (partner 2 µM) , please?
Result: 0.498

Problem: Recorded relative viability for O=C(O)CCCCC(CCSCc1ccccc1)SCc1ccccc1 (configuration not stated) [CPI-613] + N=C(N)NC(=N)NCCc1ccccc1 [Phenformin] (partner 250 µM) , please?
Result: 0.304

Problem: Recorded relative viability for O=C(O)CCCCC(CCSCc1ccccc1)SCc1ccccc1 (configuration not stated) [CPI-613] + Nc1nc2[nH]cc(CCc3ccc(C(=O)N[C@@H](CCC(=O)O)C(=O)O)cc3)c2c(=O)[nH]1 [Pemetrexed] (partner 0.2 µM) , please?
Result: 0.781

* * *

system: HCC-366; test: relative viability (nuclei count vs DMSO), 5 days (fraction); higher = more cells survive; conditions: first compound 0.05 µM
readout.label: relative viability
Please reply with the value in numeric form only.

// solved cases for relative viability follow
Problem: Provide value of relative viability for this record tested with HCC-366: COc1cc2nccc(Oc3ccc(NC(=O)Nc4cc(C)on4)c(Cl)c3)c2cc1OC [Tivozanib] + N=C(N)NC(=N)NCCc1ccccc1 [Phenformin] (partner 250 µM)
Result: 0.632

Problem: Provide value of relative viability for this record tested with HCC-366: Nc1ccn([C@@H]2O[C@H](CO)[C@@H](O)[C@@H]2O)c(=O)n1 [Cytarabine] + NC(=O)Nc1cc(-c2cccc(F)c2)sc1C(=O)N[C@H]1CCCNC1 [AZD7762] (partner 0.2 µM)
Result: 0.107

***
Problem: Provide value of relative viability for this record tested with HCC-366: COc1cc2nccc(Oc3ccc(NC(=O)Nc4cc(C)on4)c(Cl)c3)c2cc1OC [Tivozanib] + C[C@]1(O)C[C@@H](c2nc(-c3ccc4ccc(-c5ccccc5)nc4c3)c3c(N)nccn32)C1 [Linsitinib] (partner 1 µM)
Result: 0.712
